EXPERIMENT DESCRIPTION: Solubility in water at room temperature
Format: physicochemical
STATED CONDITIONS: water, in water, at room temperature; read-out: SOL. (solubility)
Consider the following compounds; for each one, report its solubility.

These recorded examples may help you get a feel for the data.
| COMPOUND | solubility |
| --- | --- |
| COc1cccc(CC2C(=O)NC(=O)N(COCCOC(C)=O)C2=O)c1 (stereo not shown) [MBCAB, 5-Methoxybenzylacetyl acyclo barbiturate] | > 3000 µM |
| O=C1NC(=O)C(Cc2cccc(OCc3ccccc3)c2)C(=O)N1 [BBB, 5-benzyloxybenzyl barbiturate] | > 3000 µM |
| O=C1NC(=O)N(COCCO)C(=O)C1Cc1cccc(OCc2ccccc2)c1 (stereo not shown) | ≥ 3000 µM |

State, in one line, measured solubility of O=C1NC(=O)C(Cc2ccccc2)C(=O)N1 [BB, 5-benzyl barbiturate]
> 3000 µM

###

Consider the following molecules; for each one, report its pKi.
ASSAY SYSTEM: uridine phosphorylase
EXPERIMENT DESCRIPTION: Inhibition of uridine phosphorylase (mouse liver cytosol, uridine substrate)
Assay type: biochemical
STATED CONDITIONS: uridine 1 mM, pH 8, 37° C., 30 min, Dixon plots; read-out: APP Ki (apparent inhibition constant)
Method: The activity of the 5-benzyl barbiturates of this invention as inhibitors of uridine phosphorylase was measured essentially following the procedure of Naguib et al. (vol. 36, Biochem. Pharmac. pp. 2195-2201 (1987)), the disclosure of which is incorporated herein by reference. […] Incubation was carried out at 37° C., for 30 min. […] (Rf values for uridine and uracil are 0.09 and 0.39, respectively.) Spots were then cut out and counted in 20 ml of Omnifluor-based scintillant. […]
Answers are plain numbers, as −log10 of the molar value.

| MOLECULE | pKi |
| --- | --- |
| O=C1NC(=O)C(Cc2cccc(OCc3ccccc3)c2)C(=O)N1 [BBB, 5-benzyloxybenzyl barbiturate] | 5.52 |
| O=C1NC(=O)C(Cc2ccccc2)C(=O)N1 [BB, 5-benzyl barbiturate] | 4.36 |
| O=c1[nH]c(=O)n(COCCO)cc1Cc1ccccc1 | 5.49 |
| O=C1NC(=O)N(COCCO)C(=O)C1Cc1cccc(OCc2ccccc2)c1 (stereo not shown) | 6.10 |
| O=c1[nH]c(=O)n(COCCO)cc1Cc1cccc(OCc2ccccc2)c1 | 5.96 |

Now let's try a different one.
State, in one line, measured pKi of COc1cccc(CC2C(=O)NC(=O)N(COCCOC(C)=O)C2=O)c1 (stereo not shown) [MBCAB, 5-Methoxybenzylacetyl acyclo barbiturate]
5.72

###

EXPERIMENT DESCRIPTION: Solubility in water at room temperature
Type: physicochemical
STATED CONDITIONS: water
Consider the following molecules; for each one, report its solubility.

| MOLECULE | VALUE MEASURED |
| --- | --- |
| O=c1[nH]c(=O)n(COCCO)cc1Cc1cccc(OCc2ccccc2)c1 [BBAU, 5-benzyl-oxybenzyl-acyclouridine] | ≤ 1000 µM |

Please state solubility for every molecule in the list that follows.
1. O=c1[nH]cc(Cc2cccc(OCc3ccccc3)c2)c(=O)[nH]1 [BBU, 5-benzyloxybenzyl uracil]
2. O=c1[nH]c(=O)n(COCCO)cc1Cc1ccccc1 [BAU]
3. O=c1[nH]cc(Cc2ccccc2)c(=O)[nH]1 [BU]

≤ 1000 µM
1000 µM
≤ 1000 µM

Source: patent US5141943A
